Item-by-item account of IC50
Molecular target: human PF4 (Homo sapiens, UniProt P02776)
Construct: PF4 is a 70 amino acid, lysine-rich 7.8 kDa platelet-specific protein; made in house; host or cells: Escherichia coli BL21DE3 pLysS (pT7-7) and/or Drosophila S2 cells
Sequence (P02776 32-101): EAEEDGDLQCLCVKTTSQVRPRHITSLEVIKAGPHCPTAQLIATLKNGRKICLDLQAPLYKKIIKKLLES
Assay: Inhibition of PF4 tetramer formation (BS3 cross-linking, SDS-PAGE)
Assay type: biochemical
Settings: read-out: IC50 of PF4 tetramer formation inhibition
Record the value in nM, omitting the unit from your answer.

CC(C)C(=O)NCC(=O)C1C(=O)c2ccc(C(=O)c3ccc4c(c3)C(=O)C(C(=O)CNC(=O)C(C)C)C4=O)cc2C1=O (stereo not drawn)    2600
O=C1CC(=O)c2cc(S(=O)(=O)c3ccc4c(c3)C(=O)CC4=O)ccc21    2320
CC(C)(C)OC(=O)N1CCC[C@@H]1C(=O)C1C(=O)c2ccc(S(=O)(=O)c3ccc4c(c3)C(=O)C(C(=O)[C@H]3CCCN3C(=O)OC(C)(C)C)C4=O)cc2C1=O (stereo partly drawn)    2600
CO[C@@H](C(=O)C1C(=O)c2ccc(S(=O)(=O)c3ccc4c(c3)C(=O)C(C(=O)[C@H](OC)c3ccccc3)C4=O)cc2C1=O)c1ccccc1 (stereo partly drawn)    18000
CCOC(=O)C1C(=O)c2ccc(C(=O)c3ccc4c(c3)C(=O)C(C(=O)OCC)C4=O)cc2C1=O (stereo not drawn)    2000

molecule Cc1cccc(NC(=O)C2C(=O)c3ccc(C(=O)c4ccc5c(c4)C(=O)C(C(=O)Nc4cccc(C)c4)C5=O)cc3C2=O)c1 (stereo not drawn) , IC50 observed: 1070
